Sourced from paper PMC10666625

Assay procedure: Serum pharmacokinetics after a single oral dose (24 h study), LC-MS/MS, noncompartmental analysis
Format: in vivo, Sprague Dawley rats
Settings: male, Sprague Dawley, rat, serum, po, 20 mg/kg, single oral dose 20 mg/kg, rat serum, median, n=4
Assay endpoint: Tmax (h)
Respond numerically; units are h and should not be typed.

Noted for `CN1CCN(CCOc2cc(OC3CCOCC3)c3c(Nc4c(Cl)ccc5c4OCO5)ncnc3c2)CC1` : its Tmax reads 6

====

Assay procedure: 7-day repeated daily oral dosing study: serum and hippocampal concentrations
Type: in vivo, Sprague Dawley rats
Settings: male, Sprague Dawley, rat, hippocampus; repeated oral dosing 20 mg/kg/day, day 3; read-out: Hippocampal saracatinib concentration
Assay endpoint: concentration at 3 day (ng/g)
# number only, unit ng/g dropped from output

Per the record, `CN1CCN(CCOc2cc(OC3CCOCC3)c3c(Nc4c(Cl)ccc5c4OCO5)ncnc3c2)CC1` has concentration at 3 day of 239
